Values from patent US11242337B2

Tested on: human ileum monolayer culture
experiment: Sustained inhibition of apical acid secretion in human organoid monolayer cell cultures (ileum)
Assay type: cell-based
measurement_setup: Homo sapiens, 48 h; 1 μM apical, dosed day 6, apical media pH day 8, vs DMSO
Record form. Attribute: inhibition at 1 µM. Fill in for each entry.

Prompt line: Bench note: what inhibition at 1 µM did "Cc1cc(S(=O)(=O)N[C@H]2CCN(CCOCCNC(=O)NCCCCNC(=O)NCCOCCN3CC[C@H](NS(=O)(=O)c4ccc(O[C@H]5c6cc(Cl)cc(Cl)c6C[C@@H]5N(C)C)c(C)c4)C3)C2)ccc1O[C@H]1c2cc(Cl)cc(Cl)c2C[C@@H]1N(C)C" show?
Response line: > 70%

Prompt line: Return reported inhibition at 1 µM; argument: "Cc1cc(Cl)cc2c1C[C@H](N(C)C)[C@H]2Oc1ccc(S(=O)(=O)NCCOCCOCCNC(=O)NCCCCNC(=O)NCCOCCOCCNS(=O)(=O)c2ccc(O[C@H]3c4cc(Cl)cc(C)c4C[C@@H]3N(C)C)c(F)c2)cc1F"
Response line: < 50%

Prompt line: I'd like to know its inhibition at 1 µM. The molecule in question is "Cc1cc(Cl)cc2c1C[C@H](N1CCNCC1)[C@H]2Oc1ccc(S(=O)(=O)NCCOCCOCCNC(=O)NCCCCNC(=O)NCCOCCOCCNS(=O)(=O)c2ccc(O[C@H]3c4cc(Cl)cc(C)c4C[C@@H]3N3CCNCC3)cc2)cc1"
Response line: 50 to 70%

Prompt line: Which inhibition at 1 µM reading was recorded for the molecule "Cc1cc(S(=O)(=O)NCCOCCOCCNC(=O)NCCCCNC(=O)NCCOCCOCCNS(=O)(=O)c2ccc(O[C@H]3c4cc(Cl)cc(C)c4C[C@@H]3N3CCNCC3)c(C)c2)ccc1O[C@H]1c2cc(Cl)cc(C)c2C[C@@H]1N1CCNCC1" ?
Response line: > 70%

Prompt line: Reported inhibition at 1 µM for "N#Cc1cc(Cl)cc2c1C[C@H](N1CCNCC1)[C@H]2Oc1ccc(S(=O)(=O)N[C@@H]2CCN(CCOCCNC(=O)NCCCCNC(=O)NCCOCCN3CC[C@@H](NS(=O)(=O)c4ccc(O[C@H]5c6cc(Cl)cc(C#N)c6C[C@@H]5N5CCNCC5)c(F)c4)C3)C2)cc1F" : what is it?
Response line: > 70%

Prompt line: Need inhibition at 1 µM of "Cc1cc(S(=O)(=O)N[C@H]2CCN(CCOCCNC(=O)NCCCCNC(=O)NCCOCCN3CC[C@H](NS(=O)(=O)c4ccc(O[C@H]5c6cc(Cl)cc(Cl)c6C[C@@H]5N(C)C)c(C)c4)C3=O)C2=O)ccc1O[C@H]1c2cc(Cl)cc(Cl)c2C[C@@H]1N(C)C" , thanks.
Response line: 50 to 70%

Prompt line: Item N#Cc1cc(Cl)cc2c1C[C@H](N1CCNCC1)[C@H]2Oc1ccc(S(=O)(=O)N[C@H]2CCN(CCOCCNC(=O)NCCCCNC(=O)NCCOCCN3CC[C@H](NS(=O)(=O)c4ccc(O[C@H]5c6cc(Cl)cc(C#N)c6C[C@@H]5N5CCNCC5)cc4)C3)C2)cc1 [Example 107, (trifluoroacetate)] has what recorded inhibition at 1 µM?
Response line: > 70%

Prompt line: Recorded inhibition at 1 µM for "N#Cc1cc(Cl)cc2c1C[C@H](N1CCNCC1)[C@H]2Oc1ccc(S(=O)(=O)NCCOCCOCCNC(=O)NCCCCNC(=O)NCCOCCOCCNS(=O)(=O)c2ccc(O[C@H]3c4cc(Cl)cc(C#N)c4C[C@@H]3N3CCNCC3)c(F)c2)cc1F" , please?
Response line: 50 to 70%
